# Experimental system: human μ-opiate receptor (Homo sapiens)
# Construct: purchased NEN, Zaventem, Belgium RB-HOM; host or cells: CHO-K1 cells (membrane preparation)
# Sequence (P35372 whole entry): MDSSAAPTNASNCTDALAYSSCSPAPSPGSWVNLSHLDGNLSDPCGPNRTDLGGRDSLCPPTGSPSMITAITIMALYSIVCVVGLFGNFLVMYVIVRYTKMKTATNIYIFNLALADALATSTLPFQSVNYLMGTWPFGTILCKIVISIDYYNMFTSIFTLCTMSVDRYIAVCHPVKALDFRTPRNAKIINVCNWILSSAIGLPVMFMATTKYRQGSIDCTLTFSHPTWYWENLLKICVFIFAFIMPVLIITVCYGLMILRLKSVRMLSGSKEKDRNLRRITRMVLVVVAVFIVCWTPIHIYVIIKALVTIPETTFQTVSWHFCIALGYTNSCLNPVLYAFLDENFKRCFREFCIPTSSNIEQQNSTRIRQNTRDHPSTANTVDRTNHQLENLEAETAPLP
# Protocol details: μ-opiate receptor binding assay with [3H] naloxone (WGA-SPA beads)
# Run conditions: 1 μmol/l test substance; 1 nmol/l [3H] naloxone; CHO-K1 cell membranes expressing human μ-opiate receptor
inhibition at 1 µM overview
Observation type: inhibition at 1 µM (%)

- Compound: "CN(C)C1(c2ccccc2)CCN(C(=O)C2CN(Cc3ccc4[nH]ccc4c3)c3ccccc32)CC1 (centres unmarked)"
  Value reported: 77
- Compound: "COc1ccc2[nH]cc(CN(C)CCN3CCC(c4ccccc4)(N(C)C)CC3)c2c1"
  Value reported: 97
- Compound: "CN(C(=O)Cc1c[nH]c2ccc(Br)cc12)C(C(=O)N1CCC(c2cccs2)(N(C)C)CC1)c1ccccc1 (centres unmarked)"
  Value reported: 95
- Compound: "CC(C)C(CC(=O)NCCN1CCC(c2cccs2)(N(C)C)CC1)c1c[nH]c2ccccc12 (centres unmarked)"
  Value reported: 99
- Compound: "COc1ccc2c(CN3CCCC(C(=O)N4CCC(c5ccccc5)(N(C)C)CC4)C3)c(C)n(C)c2c1 (centres unmarked)"
  Value reported: 61
- Compound: "CN(CCCN1CCC(c2cccs2)(N(C)C)CC1)C(=O)Cc1c[nH]c2cc(F)ccc12"
  Value reported: 88
- Compound: "CC(C)C(CC(=O)N(C)CCN1CCC(c2ccccc2)(N(C)C)CC1)c1c[nH]c2ccccc12 (centres unmarked)"
  Value reported: 97
- Compound: "CN(CCN1CCC(c2ccccc2)(N(C)C)CC1)Cc1c[nH]c2ccc(Br)cc12"
  Value reported: 95

* * *

# Experimental system: ORL1 receptor (Homo sapiens, UniProt P41146)
# Construct: expressed in transfected cells; host or cells: CHO (recombinant CHO-ORL1 cells), membranes
# Sequence (P41146 whole entry): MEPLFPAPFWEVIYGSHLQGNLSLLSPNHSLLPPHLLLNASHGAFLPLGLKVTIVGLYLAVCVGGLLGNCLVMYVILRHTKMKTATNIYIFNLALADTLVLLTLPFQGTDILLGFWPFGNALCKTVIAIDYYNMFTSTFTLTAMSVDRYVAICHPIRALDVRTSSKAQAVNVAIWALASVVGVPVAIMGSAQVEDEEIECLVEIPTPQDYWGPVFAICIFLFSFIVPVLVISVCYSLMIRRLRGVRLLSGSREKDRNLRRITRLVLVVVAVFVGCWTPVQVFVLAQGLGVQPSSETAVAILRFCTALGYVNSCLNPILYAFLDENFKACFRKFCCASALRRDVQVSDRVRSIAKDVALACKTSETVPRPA
# Protocol details: ORL1 receptor binding assay with 3H-nociceptin/orphanin FQ (WGA-SPA beads)
# Run conditions: c=1 μM test substance; 0.5 nM 3H-nociceptin/orphanin FQ; membranes of recombinant CHO-ORL1 cells
Kindly return MET if reported inhibition at 1 µM is no lower than 60%; return NOT MET if it is lower.

- Compound: "CC(C)c1ccc2c(CN(C)CCN3CCC(c4ccccc4)(N(C)C)CC3)c[nH]c2c1 [Example 180]"
  Experimental system: "ORL1 receptor (Homo sapiens, UniProt P41146)"
  Class label: "MET"
- Compound: "CN(C)C1(c2cccs2)CCN(CCNC(=O)Cc2c[nH]c3cc(F)ccc23)CC1 [Example 8]"
  Experimental system: "ORL1 receptor (Homo sapiens, UniProt P41146)"
  Class label: "MET"
- Compound: "CCCCC1(N(C)C)CCN(CCN(C)C(=O)CCc2cn(C)c3ccccc23)CC1 [Example 49]"
  Experimental system: "ORL1 receptor (Homo sapiens, UniProt P41146)"
  Class label: "NOT MET"
- Compound: "CN(CCN1CCC(c2ccccc2)(N2CCCC2)CC1)C(=O)c1ccc2ccn(C)c2c1 [Example 37]"
  Experimental system: "ORL1 receptor (Homo sapiens, UniProt P41146)"
  Class label: "NOT MET"
- Compound: "Cc1c(CN(C)CCCN2CCC(c3cccs3)(N(C)C)CC2)c2ccccc2n1C [Example 81]"
  Experimental system: "ORL1 receptor (Homo sapiens, UniProt P41146)"
  Class label: "MET"
- Compound: "CN(C)C1(c2cccs2)CCN(C(=O)CNC(=O)C2CCCc3c2[nH]c2ccc(Cl)cc32)CC1 (centres unmarked) [Example 116]"
  Experimental system: "ORL1 receptor (Homo sapiens, UniProt P41146)"
  Class label: "NOT MET"
- Compound: "CN(CCCN1CCC(c2ccccc2)(N(C)C)CC1)C(=O)CCc1c[nH]c2ccccc12 [Example 61]"
  Experimental system: "ORL1 receptor (Homo sapiens, UniProt P41146)"
  Class label: "MET"
- Compound: "CN(C)C1(c2cccs2)CCN(C(=O)CC(NCc2cccc3[nH]ccc23)c2ccccc2)CC1 (centres unmarked) [Example 174]"
  Experimental system: "ORL1 receptor (Homo sapiens, UniProt P41146)"
  Class label: "MET"

* * *

# Experimental system: ORL1 receptor (Homo sapiens, UniProt P41146)
# Construct: expressed in transfected cells; host or cells: CHO (recombinant CHO-ORL1 cells), membranes
# Protocol details: ORL1 receptor binding assay with 3H-nociceptin/orphanin FQ (WGA-SPA beads)
# Run conditions: c=1 μM test substance; 0.5 nM 3H-nociceptin/orphanin FQ; membranes of recombinant CHO-ORL1 cells
Observation type: inhibition at 1 µM

- Compound: "CC(C)C(CC(=O)N1CC(C(=O)N2CCC(c3ccccc3)(N(C)C)CC2)c2ccccc21)c1c[nH]c2ccccc12 (stereo not shown) [Example 89]"
  Value reported: "91%"
- Compound: "CN(CCN1CCC(c2ccccc2)(N(C)C)CC1)Cc1ccc2cc[nH]c2c1 [Example 181]"
  Value reported: "96%"
- Compound: "CC(C)C(CC(=O)NCC(=O)N1CCC(c2cccs2)(N(C)C)CC1)c1c[nH]c2ccccc12 (stereo not shown) [Example 88]"
  Value reported: "92%"
- Compound: "CN(CCN1CCC(c2ccccc2)(N(C)C)CC1)Cc1ccc2[nH]ccc2c1 [Example 68]"
  Value reported: "65%"

* * *

inhibition at 1 µM overview
# Experimental system: ORL1 receptor (Homo sapiens, UniProt P41146)
# Construct: expressed in transfected cells; host or cells: CHO (recombinant CHO-ORL1 cells), membranes
# Protocol details: ORL1 receptor binding assay with 3H-nociceptin/orphanin FQ (WGA-SPA beads)
# Run conditions: c=1 μM test substance; 0.5 nM 3H-nociceptin/orphanin FQ; membranes of recombinant CHO-ORL1 cells

- Compound: "CN(C)C1(c2ccccc2)CCN(C(=O)C2CN(C(=O)Cc3c[nH]c4cc(F)ccc34)c3ccccc32)CC1 (stereo not shown)"
  inhibition at 1 µM [%]: 94
- Compound: "CN(C)C1(c2cccs2)CCN(CCNC(=O)C2CCCc3c2[nH]c2ccc(Cl)cc32)CC1 (stereo not shown)"
  inhibition at 1 µM [%]: 62
- Compound: "CN(C)C1(c2ccccc2)CCN(C(=O)C2CN(C(=O)c3cccc4c3ccn4C)c3ccccc32)CC1 (stereo not shown)"
  inhibition at 1 µM [%]: 56
- Compound: "COc1ccc2[nH]c(C(=O)N(C)CCCN3CCC(c4cccs4)(N(C)C)CC3)cc2c1"
  inhibition at 1 µM [%]: 25

* * *

# Experimental system: ORL1 receptor (Homo sapiens, UniProt P41146)
# Construct: expressed in transfected cells; host or cells: CHO (recombinant CHO-ORL1 cells), membranes
# Protocol details: ORL1 receptor binding assay with 3H-nociceptin/orphanin FQ (WGA-SPA beads)
# Run conditions: c=1 μM test substance; 0.5 nM 3H-nociceptin/orphanin FQ; membranes of recombinant CHO-ORL1 cells
# Method: Measurement of ORL1 Binding The cyclohexane derivatives having the general formula I were investigated in a receptor binding assay with ^3H-nociceptin/orphanin FQ with membranes of recombinant CHO—ORL1 cells. […] The binding to the ORL1 receptor was determined using 1 mg amounts of WGA-SPA beads (Amersham-Pharmacia, Freiburg, Germany), by incubation of the batch for one hour at room temperature and subsequent measurement in a Trilux scintillation counter (Wallac, Finland). […]
Kindly return Fulfilled if reported inhibition at 1 µM is no lower than 40%; return Not fulfilled if it is lower.

- Compound: "CC(C)C(C(=O)N1CCC(c2ccccc2)(N(C)C)CC1)N(C)Cc1ccc2cc[nH]c2c1 (centres unmarked)"
  Class label: "Fulfilled"
- Compound: "CN(C(=O)C1CCCc2c1[nH]c1ccc(Cl)cc21)C(C(=O)N1CCC(c2cccs2)(N(C)C)CC1)c1ccccc1 (centres unmarked)"
  Class label: "Not fulfilled"
- Compound: "COc1ccc2c(c1)c(CN(C)CCN1CCC(c3ccccc3)(N(C)C)CC1)c(C)n2Cc1ccccc1"
  Class label: "Fulfilled"
- Compound: "CN(C)C1(c2cccs2)CCN(C(=O)CC(NCc2ccc3cc[nH]c3c2)c2ccccc2)CC1 (centres unmarked)"
  Class label: "Fulfilled"
- Compound: "CN(C)C1(c2ccccc2)CCN(C(=O)CCNC(=O)c2cccc3c2ccn3C)CC1"
  Class label: "Fulfilled"
- Compound: "CN(CCN1CCC(c2ccccc2)(N(C)C)CC1)C(=O)CCc1cn(C)c2ccccc12"
  Class label: "Fulfilled"
- Compound: "CN(CCCN1CCC(c2cccs2)(N(C)C)CC1)C(=O)c1cccc2c1ccn2C"
  Class label: "Not fulfilled"
- Compound: "CN(Cc1ccc2[nH]ccc2c1)C(C(=O)N1CCC(c2cccs2)(N(C)C)CC1)c1ccccc1 (centres unmarked)"
  Class label: "Not fulfilled"
- Compound: "CN(C)C1(c2ccccc2)CCN(C(=O)C2CCCN(C(=O)CCc3cn(C)c4ccccc34)C2)CC1 (centres unmarked)"
  Class label: "Not fulfilled"
- Compound: "CC(C)C(C(=O)N1CCC(c2ccccc2)(N(C)C)CC1)N(C)Cc1ccc2[nH]ccc2c1 (centres unmarked)"
  Class label: "Not fulfilled"
- Compound: "COc1ccc2c(c1)c(CNCCN1CCC(c3cccs3)(N(C)C)CC1)c(C)n2Cc1ccccc1"
  Class label: "Fulfilled"
- Compound: "CN(CCCN1CCC(c2cccs2)(N(C)C)CC1)C(=O)c1cc2cc(F)ccc2[nH]1"
  Class label: "Fulfilled"
- Compound: "CN(C)C1(c2cccs2)CCN(CCNC(=O)c2cccc3c2ccn3C)CC1"
  Class label: "Fulfilled"
- Compound: "CN(CCCN1CCC(c2cccs2)(N(C)C)CC1)C(=O)c1c[nH]c2ccccc12"
  Class label: "Fulfilled"
- Compound: "COc1ccc2[nH]cc(CN(C)CCN3CCC(c4ccccc4)(N(C)C)CC3)c2c1"
  Class label: "Fulfilled"
- Compound: "CN(C)C1(c2cccs2)CCN(CCNCc2c[nH]c3ccc(Cl)cc23)CC1"
  Class label: "Fulfilled"
- Compound: "CCCCC1(N(C)C)CCN(CCN(C)C(=O)CCc2c[nH]c3ccccc23)CC1"
  Class label: "Fulfilled"
- Compound: "CN(CCN1CCC(c2ccccc2)(N2CCCC2)CC1)C(=O)Cc1c[nH]c2ccc(Br)cc12"
  Class label: "Not fulfilled"
- Compound: "CCCCC1(N(C)C)CCN(CCN(C)C(=O)c2cc3cc(F)ccc3[nH]2)CC1"
  Class label: "Not fulfilled"
- Compound: "Cc1[nH]c2ccccc2c1CNC(CC(=O)N1CCC(c2cccs2)(N(C)C)CC1)c1ccccc1 (centres unmarked)"
  Class label: "Fulfilled"
- Compound: "CN(C)C1(c2ccccc2)CCN(C(=O)C2CCCN(Cc3c(-c4ccc(F)cc4)[nH]c4ccccc34)C2)CC1 (centres unmarked)"
  Class label: "Fulfilled"
- Compound: "CN(C)C1(c2ccccc2)CCN(C(=O)C2CCCN(Cc3ccc4cc[nH]c4c3)C2)CC1 (centres unmarked)"
  Class label: "Fulfilled"
- Compound: "CN(CCN1CCC(c2ccccc2)(N(C)C)CC1)C(=O)c1cc2cc(F)ccc2[nH]1"
  Class label: "Fulfilled"
- Compound: "CN(CCN1CCC(c2ccccc2)(N(C)C)CC1)Cc1c(-c2ccc(F)cc2)[nH]c2ccccc12"
  Class label: "Fulfilled"
- Compound: "CC(C)C(CC(=O)NCCC(=O)N1CCC(c2ccccc2)(N(C)C)CC1)c1c[nH]c2ccccc12 (centres unmarked)"
  Class label: "Fulfilled"
- Compound: "CN(CCCN1CCC(c2ccccc2)(N(C)C)CC1)C(=O)c1ccc2ccn(C)c2c1"
  Class label: "Not fulfilled"
- Compound: "CN(CCN1CCC(c2ccccc2)(N(C)C)CC1)Cc1c[nH]c2ccc(Br)cc12"
  Class label: "Fulfilled"
- Compound: "CN(CCN1CCC(c2ccccc2)(N2CCCC2)CC1)C(=O)C1CCCc2c1[nH]c1ccc(Cl)cc21 (centres unmarked)"
  Class label: "Not fulfilled"
- Compound: "CN(C)C1(c2ccccc2)CCN(C(=O)C2CCCN(C(=O)C3CCCc4c3[nH]c3ccc(Cl)cc43)C2)CC1 (centres unmarked)"
  Class label: "Fulfilled"
- Compound: "CN(C)C1(c2cccs2)CCN(C(=O)CC(NC(=O)Cc2c[nH]c3cc(F)ccc23)c2ccccc2)CC1 (centres unmarked)"
  Class label: "Fulfilled"
- Compound: "CN(C)C1(c2ccccc2)CCN(C(=O)CCNCc2c[nH]c3ccccc23)CC1"
  Class label: "Fulfilled"
